src = patent US20180327367A1

system: Methicillin Resistant Staphylococcus aureus strain USA 300, NRS384; test: Minimum inhibitory concentration, broth micro-dilution (CLSI), S. aureus; assay type: cell-based; settings: Staphylococcus aureus, MRSA / NRS 384 / USA300, 22 h, MRSA USA 300 NRS384; 35° C., 22 hours; read-out: MIC (μg/mL) S. aureus
Please provide measured log10(MIC) for the entries that follow.
Annotation: log10 of MIC, µg/mL basis.

{"MOLECULE": "Cc1cc(C2CCCCCC2)ccc1C(=O)N[C@@H](CCN)C(=O)N(C)[C@@H]1C(=O)N[C@@H](C)C(=O)N[C@H](C(=O)NCC#N)Cc2ccc(OCCN)c(c2)-c2cc1ccc2OCCN [Compound 436]", "log10(MIC)": -1.33}
{"MOLECULE": "CCCCCOc1ccc(C(=O)N[C@@H](CCN)C(=O)N(C)[C@@H]2C(=O)N[C@@H](C)C(=O)N[C@H](C(=O)NCC#N)Cc3ccc(OCCN)c(c3)-c3cc2ccc3OCCN)c(Cl)c1 [Compound 270]", "log10(MIC)": -1.03}
{"MOLECULE": "CCCCCCCCCCNCCS(=O)(=O)N(C)[C@@H]1C(=O)N[C@@H](C)C(=O)N[C@H](C(=O)NCC#N)Cc2ccc(OCCN)c(c2)-c2cc1ccc2OCCN [Compound 351]", "log10(MIC)": 0.00}
{"MOLECULE": "CCCCCCCCc1ccc(C(=O)N[C@@H](CCN)C(=O)N(C)[C@@H]2C(=O)N[C@@H](C)C(=O)N[C@H](C(=O)NCC#N)Cc3ccc(OCCN)c(c3)-c3cc2ccc3OCCN)c(N)c1 [Compound 223]", "log10(MIC)": -1.51}
{"MOLECULE": "C[C@@H]1NC(=O)[C@@H](N(C)C(=O)[C@H](CCN)NC(=O)c2ccc(OCC(C)(C)C)cc2Cl)c2ccc(OCCN)c(c2)-c2cc(ccc2OCCN)C[C@@H](C(=O)NCC#N)NC1=O [Compound 279]", "log10(MIC)": -0.89}

Dear colleague, could you send me log10(MIC) for each of the items below? Thanks.
1. CCCCCCCCCC(=O)NCC(=O)N(C)[C@@H]1C(=O)N[C@@H](C)C(=O)N[C@H](C(=O)NCC#N)Cc2ccc(OCCN)c(c2)-c2cc1ccc2OCCN [Compound 463]
2. CCCCCCCCc1ccc(C(=O)N[C@@H](CCN)C(=O)N(C)[C@@H]2C(=O)N[C@@H](C)C(=O)N[C@H](C(=O)NCC#N)Cc3ccc(OCCN)c(c3)-c3cc2ccc3OCCN)c(C(F)(F)F)c1 [Compound 192]
3. Cc1cc(-c2ccc(-c3ccccc3)cc2)ccc1C(=O)N[C@@H](CCN)C(=O)N(C)[C@@H]1C(=O)N[C@@H](C)C(=O)N[C@H](C(=O)NCC#N)Cc2ccc(OCCN)c(c2)-c2cc1ccc2OCCN [Compound 144]
4. Cc1nc(-c2ccc(CC(C)C)cc2)ccc1C(=O)N[C@@H](CCN)C(=O)N(C)[C@@H]1C(=O)N[C@@H](C)C(=O)N[C@H](C(=O)NCC#N)Cc2ccc(O)c(c2)-c2cc1ccc2OCCN [Compound 502]
5. CCCCc1ccc(-c2ccc(C(=O)N[C@@H](CN)C(=O)N(C)[C@@H]3C(=O)N[C@@H](C)C(=O)N[C@H](C(=O)NCC#N)Cc4ccc(OCCN)c(c4)-c4cc3ccc4OCCN)cc2)cc1 [Compound 341]
6. CCCCCCc1ccc(C(=O)N[C@@H](CCN)CC(=O)N(C)[C@@H]2C(=O)N[C@@H](C)C(=O)N[C@H](C(=O)NCC#N)Cc3ccc(OCCN)c(c3)-c3cc2ccc3OCCN)c(C)c1 [Compound 513]

A:
-0.30
-1.20
-1.51
-1.20
-0.89
-0.72

Dear colleague, could you send me log10(MIC) for each of the items below? Thanks.
1. CCCCc1ccc(NC(=O)CC(CCN)C(=O)N(C)[C@@H]2C(=O)N[C@@H](C)C(=O)N[C@H](C(=O)NCC#N)Cc3ccc(OCCN)c(c3)-c3cc2ccc3OCCN)c(C)c1 (mixture of isomers) [Compound 456]
2. CCCCCCCc1ccc(C(=O)N[C@@H](CN)C(=O)N(C)[C@@H]2C(=O)N[C@@H](C)C(=O)N[C@H](C(=O)NCC#N)Cc3ccc(OCCN)c(c3)-c3cc2ccc3OCCN)c(C)c1 [Compound 202]
3. CCCCCCCCc1ccc(C(=O)N[C@@H](CCC(N)=O)C(=O)N(C)[C@@H]2C(=O)N[C@@H](C)C(=O)N[C@H](C(=O)NCC#N)Cc3ccc(OCCN)c(c3)-c3cc2ccc3OCCN)c(C)c1 [Compound 247]
4. CCCCCCCCCCCC(=O)N[C@@H](CCC(N)=O)C(=O)N(C)[C@@H]1C(=O)N[C@@H](C)C(=O)N[C@H](C(=O)NCC#N)Cc2ccc(OCCN)c(c2)-c2cc1ccc2OCCN [Compound 244]
5. Cc1cc(C#CC2CCCCC2)ccc1C(=O)N[C@@H](CCN)C(=O)N(C)[C@@H]1C(=O)N[C@@H](C)C(=O)N[C@H](C(=O)NCC#N)Cc2ccc(OCCN)c(c2)-c2cc1ccc2OCCN [Compound 310]
6. CCCCCc1ncc(C(=O)N[C@@H](CCN)C(=O)N(C)[C@@H]2C(=O)N[C@@H](C)C(=O)N[C@H](C(=O)NCC#N)Cc3ccc(OCCN)c(c3)-c3cc2ccc3OCCN)c(C)n1 [Compound 200]
7. CCCCc1ccc(-c2ccc(C(=O)N[C@@H](CN)C(=O)N(C)[C@@H]3C(=O)N[C@@H](C)C(=O)N[C@H](C(=O)NCC#N)Cc4ccc(OCCC)c(c4)-c4cc3ccc4OCCN)cc2)cc1 [Compound 322]
8. CCCCCCc1ccc(C(=O)N[C@@H](CCN)C(=O)N(C)[C@@H]2C(=O)N[C@@H](C)C(=O)N[C@H](C(=O)NCC#N)Cc3ccc(OCCN)c(c3)-c3cc2ccc3OCCN)c(OCCN)c1 [Compound 519]

A:
[-0.60, -1.51, -1.03, -0.89, -1.33, 0.00, 0.18, -0.89]
